# test_method_notes: in vivo
# Design: species or system Sprague Dawley rats
# test_context: male, Sprague Dawley, rat, po, 10 mg/kg
# Experimental: 10 mg of the compound was weighed and transferred to graduated tube. Then 500 μL of DMA (5% v/v) was added, vortex mixed thoroughly and sonicated till test item was completely dissolved. Then 5 mL of PEG 200 (50% v/v) were added, and vortex mixed thoroughly. Thereafter, Sterile Water for Injection (SWFI) was added in small increments and vortex mixed thoroughly. Finally, the volume was made up to 10 mL with SWFI (45% v/v) to obtain a clear solution with final formulation strength of 1 mg/mL. […]
What Tmax was measured for each of the following?
# value in h; strip the unit string

Requested read-out: Tmax. Entry: Cc1cc(NCc2ccncc2)n2nc(C)c(-c3ccc4c(c3)c(C)nn4C)c2n1 [Comp. Y, reference compound]
1.2

Then what about the molecule Cc1cc(CNc2cc(C)nc3c(-c4ccc5c(c4)c(C)nn5C)c(C)nn23)ccn1 [Ex. 4] ?
1.3

----------
# test_method_notes: Human plasma protein binding (Rapid Equilibrium Dialysis)
# Assay type: in vitro ADME
# test_context: pH 7.4, RED device, 37° C.
recorded_metric: fraction unbound at 4 h, 10 μM
Just the number, please, no unit attached.

# fraction unbound at 4 h, 10 μM lookup, item Cc1cc(NCc2ccncc2)n2nc(C)c(-c3ccc4c(c3)c(C)nn4C)c2n1 [Comp. Y, reference compound]
0.027

Another compound: Cc1cc(CNc2cc(C)nc3c(-c4ccc5c(c4)c(C)nn5C)c(C)nn23)ccn1
0.015

And Cc1cc(NCc2ccnc(F)c2)n2nc(C)c(-c3ccc4c(c3)c(C)nn4C)c2n1 ?
0.022

----------
# test_method_notes: in vivo
# Set-up: species or system Sprague Dawley rats
# test_context: male, Sprague Dawley, rat, po, 10 mg/kg
So I've got a bunch of compounds here, and I need their MRT last values.
Number in h, nothing else.

For Cc1cc(CNc2cc(C)nc3c(-c4ccc5c(c4)c(C)nn5C)c(C)nn23)ccn1 , what is its reported MRT last?
6.7

Try this compound too: Cc1cc(NCc2ccncc2)n2nc(C)c(-c3ccc4c(c3)c(C)nn4C)c2n1 [Comp. Y, reference compound]
4.4

----------
# Tested on: coxsackie B virus strain 2
# test_method_notes: Antiviral CPE inhibition assay in mammalian cell culture, Cox B2
# Assay type: cell-based
# test_context: read-out: Inh. at 10 nM, Cox B2
Could you please report measured inhibition at 0.01 µM for the items listed next?
Report the value in % with no unit label.

# input compound: COc1ccc(-c2c(C)nn3c(NCc4ccncc4)cc(C)nc23)cc1OC [X, reference compound] ; wanted: its inhibition at 0.01 µM
100

Lookup COc1ccc(-c2c(C)nc3c(NCc4ccnc(C)c4)cc(C)nn23)cc1OC
100

Now this one: COc1ccc(-c2c(C)nc3c(NCc4ccnc(F)c4)cc(C)nn23)cc1OC
100

# iterate: Cc1cc(NCc2ccncc2)n2nc(C)c(-c3ccc4c(c3)c(C)nn4C)c2n1 [Comp. Y, reference compound]
100

// next record Cc1cc(NCc2ccnc(F)c2)n2nc(C)c(-c3ccc4c(c3)c(C)nn4C)c2n1
100

Same again, this time with Cc1cc(CNc2cc(C)nc3c(-c4ccc5c(c4)c(C)nn5C)c(C)nn23)ccn1
100

----------
# test_method_notes: in vivo
# Set-up: species or system Sprague Dawley rats
# test_context: male, Sprague Dawley, rat, po, 10 mg/kg
recorded_metric: Cmax

Cmax for Cc1cc(NCc2ccncc2)n2nc(C)c(-c3ccc4c(c3)c(C)nn4C)c2n1 [Comp. Y, reference compound] ?
2300 ng/mL

Another: Cc1cc(CNc2cc(C)nc3c(-c4ccc5c(c4)c(C)nn5C)c(C)nn23)ccn1 [Ex. 4]
2500 ng/mL

----------
# study_target: CYP3A4 (Homo sapiens, UniProt P08684)
# Construct: from tissue; host or cells: human liver microsomes
# Sequence (P08684 whole entry): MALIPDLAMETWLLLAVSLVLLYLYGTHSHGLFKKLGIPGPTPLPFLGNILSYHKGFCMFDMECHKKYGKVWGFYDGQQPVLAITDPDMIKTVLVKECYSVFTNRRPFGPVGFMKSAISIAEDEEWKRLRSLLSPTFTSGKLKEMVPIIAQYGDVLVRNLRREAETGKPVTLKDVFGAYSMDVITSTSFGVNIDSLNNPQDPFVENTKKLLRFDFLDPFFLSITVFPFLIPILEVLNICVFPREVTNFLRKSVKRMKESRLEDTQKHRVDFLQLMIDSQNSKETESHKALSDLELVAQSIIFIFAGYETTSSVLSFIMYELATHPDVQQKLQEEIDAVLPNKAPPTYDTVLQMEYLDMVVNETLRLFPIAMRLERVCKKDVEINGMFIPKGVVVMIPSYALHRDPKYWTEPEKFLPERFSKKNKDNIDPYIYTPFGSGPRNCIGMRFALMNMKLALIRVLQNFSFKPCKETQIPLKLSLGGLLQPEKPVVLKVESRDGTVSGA
# test_method_notes: In vitro CYP 3A4 enzyme inhibition in human liver microsomes by probe substrate method
# Assay type: in vitro ADME
# test_context: human liver microsomes 0.5 mg/mL; probe substrate Midazolam 5 μM
recorded_metric: IC50 (µM)
Respond numerically; units are µM and should not be typed.

Fill in the blank: the reported IC50 of COc1ccc(-c2c(C)nc3c(NCc4ccnc(C)c4)cc(C)nn23)cc1OC [Ex. 1] is ____.
23.1

COc1ccc(-c2c(C)nn3c(NCc4ccncc4)cc(C)nc23)cc1OC [X, reference compound] , same question.
0.97

Try this molecule next: Cc1cc(NCc2ccncc2)n2nc(C)c(-c3ccc4c(c3)c(C)nn4C)c2n1 [Comp. Y, reference compound]
0.28

----------
# test_method_notes: in vivo
# Set-up: species or system Sprague Dawley rats
# test_context: male, Sprague Dawley, rat, po, 10 mg/kg
recorded_metric: half-life (h)
Report as a plain number; the unit h is understood.

Form field: reported half-life of Cc1cc(CNc2cc(C)nc3c(-c4ccc5c(c4)c(C)nn5C)c(C)nn23)ccn1 [Ex. 4]
6.8

Then Cc1cc(NCc2ccncc2)n2nc(C)c(-c3ccc4c(c3)c(C)nn4C)c2n1 [Comp. Y, reference compound] ?
3.4

----------
# System: enterovirus D68
# test_method_notes: Antiviral CPE inhibition assay in mammalian cell culture, EV-D68
# Type: cell-based
# test_context: Enterovirus D, EVD68; 100 nM; inhibition of viral CPE; read-out: Inh. at 100 nM, EV-D68
recorded_metric: inhibition at 0.1 µM (%)
Use % as the unit, but write only the number.

Which inhibition at 0.1 µM value is on record for COc1ccc(-c2c(C)nc3c(NCc4ccnc(C)c4)cc(C)nn23)cc1OC [Ex. 1] ?
83

Thanks! And Cc1cc(NCc2ccncc2)n2nc(C)c(-c3ccc4c(c3)c(C)nn4C)c2n1 [Comp. Y, reference compound] ?
80

Thanks! And COc1ccc(-c2c(C)nc3c(NCc4ccnc(F)c4)cc(C)nn23)cc1OC [compound 2] ?
68

Let us now turn to Cc1cc(NCc2ccnc(F)c2)n2nc(C)c(-c3ccc4c(c3)c(C)nn4C)c2n1 [Ex. 3]
70

Can you check COc1ccc(-c2c(C)nn3c(NCc4ccncc4)cc(C)nc23)cc1OC [X, reference compound] next?
86

Next record, please: Cc1cc(CNc2cc(C)nc3c(-c4ccc5c(c4)c(C)nn5C)c(C)nn23)ccn1 [Ex. 4]
70

----------
Entries with reported IC50 on CYP3A4 (Homo sapiens, UniProt P08684)

Hi! What's the reported IC50 for Cc1cc(NCc2ccnc(F)c2)n2nc(C)c(-c3ccc4c(c3)c(C)nn4C)c2n1 on CYP3A4 (Homo sapiens, UniProt P08684)?
> 25 µM

How about Cc1cc(CNc2cc(C)nc3c(-c4ccc5c(c4)c(C)nn5C)c(C)nn23)ccn1 ?
> 25 µM

Same question for COc1ccc(-c2c(C)nc3c(NCc4ccnc(F)c4)cc(C)nn23)cc1OC please.
> 25 µM

// provenance: patent US12319696B2
